Tested on: Bacillus subtilis DB104 (SP-AmyQ fusion secretion)
measurementNotes: AmyQ secretion efficiency, weighted average sort bin (1 = best secretion, 10 = worst) (bin number (weighted average, 1-10)); higher = lower secretion efficiency
endpointName: AmyQ secretion efficiency
Form rule: numeric answer, no unit written next to it.

**Query** // lookup AmyQ secretion efficiency for `MKKKKAAAVLLSLGLVFGFSYGAGHVAEAKTK`
**Result** 1.65

###

System: Bacillus subtilis DB104 (SP-AmyQ fusion secretion)
measurementNotes: AmyQ secretion efficiency, weighted average sort bin (1 = best secretion, 10 = worst) (bin number (weighted average, 1-10)); higher = lower secretion efficiency
Give criterion met when the value for AmyQ secretion efficiency is at least 5. Give criterion not met when it is less.

These solved cases illustrate the format of a correct answer.
MKKLALTAAAGLGLTALHSAPAAKAAPL = criterion not met
MPYLKRVLLLLVTGLFMSLFAVTATASHQTG = criterion not met
MLKKIALTLCPAIVGSLLFFTAPPSAHVS = criterion met

// switching to the query sequence
**Query** # check: AmyQ secretion efficiency of `MLKKKWMVGLLAGCLAAGGFSYNAFNTEN` is greater than or equal to 5
**Result** criterion met
